Target: human OX2R (Homo sapiens, UniProt O43614)
Experiment: Evaluation of agonist activity against OX2R (intracellular calcium, Fura-2AM, FDSS7000, CHOOX2R cells)
Conditions: CHO cells expressing human OX2R; calcium fluorescence ratio 340/380 nm; 10^-11.5 M to 10^-5 M
Rule for this label: Criterion met means EC50 is less than 40 nM; Criterion not met means EC50 is at least 40 nM.

Some solved entries appear below for comparison.
| compound | target.system | category |
| --- | --- | --- |
| CCCCCCCCc1ccc(N2CCCN(c3cccc(NS(=O)(=O)c4cc(-c5cccc(C(=O)N(C)C)c5)ccc4OC)c3)C2=O)cc1 [Example 15] | human OX2R (Homo sapiens, UniProt O43614) | Criterion not met |
| CCCc1ccc(N2CCCN(c3cccc(NS(=O)(=O)c4cc(-c5cccc(C(=O)N(C)C)c5)ccc4OC(F)(F)F)c3)C2=O)cc1 [Example 17] | human OX2R (Homo sapiens, UniProt O43614) | Criterion not met |
| COc1ccc(-c2cccc(C(=O)N(C)C)c2)cc1S(=O)(=O)Nc1cccc(N2CCCN(c3ccc(-c4ccccc4)cc3)C2=O)c1 [Example 14] | human OX2R (Homo sapiens, UniProt O43614) | Criterion not met |

API: the following record is the query input.
Ask | Dear reviewer, please state whether COc1ccc(-c2cccc(C(=O)N(C)C)c2)cc1S(=O)(=O)Nc1cccc(N2CCCN(c3ccc(OCC(C)C)cc3)C2=O)c1 [Example 10] has EC50 strictly beneath 40 nM.
Reply | Criterion not met

----------
Target: human OX2R (Homo sapiens, UniProt O43614)
Experiment: Evaluation of agonist activity against OX2R (intracellular calcium, Fura-2AM, FDSS7000, CHOOX2R cells)
Conditions: CHO cells expressing human OX2R; calcium fluorescence ratio 340/380 nm; 10^-11.5 M to 10^-5 M
metric: EC50 (nM)
Please reply with the bare figure in nM and do not write the unit itself.

Looking up COc1ccc(N2CCCN(c3cccc(NS(=O)(=O)c4cc(C(C)C)ccc4OC)c3)C2=O)cc1 , I found its EC50 recorded as 81.7

Looking up CCCc1ccc(N2CCCN(c3cccc(NS(=O)(=O)c4cc(C5CNC(=O)C5)ccc4OC)c3)C2=O)cc1 (stereo not shown) , I found its EC50 recorded as 6.31

Looking up COc1ccc(-c2cccc(C(=O)N(C)C)c2)cc1S(=O)(=O)Nc1cccc(N2CCCN(c3ccc(C(C)C)cc3)C2=O)c1 , I found its EC50 recorded as 3.3

----------
EC50 overview
Target: human OX2R (Homo sapiens, UniProt O43614)
Sequence (O43614 1-444): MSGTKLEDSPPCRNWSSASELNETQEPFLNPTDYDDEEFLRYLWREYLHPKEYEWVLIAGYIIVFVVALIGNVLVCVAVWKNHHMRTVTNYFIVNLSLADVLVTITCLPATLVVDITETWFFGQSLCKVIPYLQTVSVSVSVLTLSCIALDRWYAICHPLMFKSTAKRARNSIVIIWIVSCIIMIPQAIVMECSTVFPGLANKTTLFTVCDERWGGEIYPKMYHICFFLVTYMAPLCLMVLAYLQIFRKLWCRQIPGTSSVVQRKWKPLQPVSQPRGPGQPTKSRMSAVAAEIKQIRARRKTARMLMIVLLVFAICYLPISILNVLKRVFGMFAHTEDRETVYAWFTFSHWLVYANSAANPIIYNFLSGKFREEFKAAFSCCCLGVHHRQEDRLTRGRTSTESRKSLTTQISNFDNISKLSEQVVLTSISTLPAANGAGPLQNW
Assay: Evaluation of agonist activity against OX2R (intracellular calcium, Fura-2AM, FDSS7000, CHOOX2R cells)
Conditions: CHO cells expressing human OX2R; calcium fluorescence ratio 340/380 nm; 10^-11.5 M to 10^-5 M
Report as: number unit

| sample.smiles | target.system | EC50 |
| --- | --- | --- |
| COc1ccc(C(C)C)cc1S(=O)(=O)Nc1cccc(N2CCCN(c3ccc(C(C)C)cc3)C2=O)c1 | human OX2R (Homo sapiens, UniProt O43614) | 41.4 nM |
| COc1ccc(N2CCCN(c3cccc(NS(=O)(=O)c4cc(-c5cccc(C(=O)N(C)C)c5)ccc4OC)c3)C2=O)cc1 | human OX2R (Homo sapiens, UniProt O43614) | 2.41 nM |

Looking up CCCc1ccc(N2CCCN(c3cccc(NS(=O)(=O)c4cc(-c5cccc(C(=O)N(C)C)c5)ccc4OC)c3)C2=O)cc1 , I found its EC50 recorded as 0.61 nM
